molecular target: hERG channel (Homo sapiens (Human), UniProt Q12809); assay: hERG channel inhibition, whole cell patch clamp in HEK293 cells; type: cell-based; settings: hERG stably expressed in HEK293 cells
Sequence (Q12809 whole entry): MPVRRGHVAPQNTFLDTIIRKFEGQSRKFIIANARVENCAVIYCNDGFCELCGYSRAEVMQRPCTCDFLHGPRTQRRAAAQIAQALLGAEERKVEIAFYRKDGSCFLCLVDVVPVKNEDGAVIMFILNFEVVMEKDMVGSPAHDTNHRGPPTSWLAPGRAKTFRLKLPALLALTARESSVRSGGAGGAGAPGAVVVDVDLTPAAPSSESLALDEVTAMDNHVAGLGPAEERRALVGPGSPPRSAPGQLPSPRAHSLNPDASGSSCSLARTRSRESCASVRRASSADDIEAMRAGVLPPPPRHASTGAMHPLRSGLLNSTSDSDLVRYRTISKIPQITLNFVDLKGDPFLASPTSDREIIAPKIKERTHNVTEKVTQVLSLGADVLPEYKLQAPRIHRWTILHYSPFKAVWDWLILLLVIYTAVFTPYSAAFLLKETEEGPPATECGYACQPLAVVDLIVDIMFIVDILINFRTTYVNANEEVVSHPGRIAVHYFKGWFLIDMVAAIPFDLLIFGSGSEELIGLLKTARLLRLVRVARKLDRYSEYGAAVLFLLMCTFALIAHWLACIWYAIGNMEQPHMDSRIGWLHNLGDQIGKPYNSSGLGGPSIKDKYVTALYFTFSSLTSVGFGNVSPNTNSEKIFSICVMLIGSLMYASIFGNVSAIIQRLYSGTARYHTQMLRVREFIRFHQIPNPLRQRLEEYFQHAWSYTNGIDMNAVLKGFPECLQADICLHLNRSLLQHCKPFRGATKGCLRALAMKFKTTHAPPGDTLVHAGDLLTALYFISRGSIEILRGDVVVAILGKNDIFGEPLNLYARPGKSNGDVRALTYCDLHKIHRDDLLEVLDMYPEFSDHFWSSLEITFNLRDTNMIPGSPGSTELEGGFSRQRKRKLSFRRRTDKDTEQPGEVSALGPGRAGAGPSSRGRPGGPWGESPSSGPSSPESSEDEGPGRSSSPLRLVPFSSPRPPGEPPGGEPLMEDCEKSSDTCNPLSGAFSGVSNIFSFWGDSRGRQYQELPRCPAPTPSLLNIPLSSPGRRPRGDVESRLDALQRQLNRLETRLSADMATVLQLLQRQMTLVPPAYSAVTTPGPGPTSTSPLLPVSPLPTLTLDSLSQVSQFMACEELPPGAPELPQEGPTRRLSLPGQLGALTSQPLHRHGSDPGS

compound	boundType	IC50 [µM]
FC(F)(F)c1ccc(C(F)(F)CN2CCC(Nc3ncnc4[nH]ncc34)CC2)nc1 [C-5]	=	31
Fc1cc(Cl)cnc1C(F)(F)CN1CCC(Nc2ncnc3[nH]ncc23)CC1 [C-16]	=	13
Cc1n[nH]c2ncnc(NC3CCN(CC(F)(F)c4ccc(C(F)(F)F)cn4)CC3)c12 [C-33]	>	30
FC(F)(F)c1ccc(C(F)(F)CN2CCC(Nc3ncnc4[nH]ncc34)CC2)cn1 [C-127]	=	23

###

Each record here notes measured IC50.
target: human NR1/NR2B (Homo sapiens (Human), UniProt Q13224); test: NR2B antagonist activity, Fluo-4 calcium influx assay in HEK293 cells; settings: HEK293 cells stably expressing NR2B; glutamate 100 μM, glycine 50 μM
Sequence (Q13224 27-1484, other chains not shown): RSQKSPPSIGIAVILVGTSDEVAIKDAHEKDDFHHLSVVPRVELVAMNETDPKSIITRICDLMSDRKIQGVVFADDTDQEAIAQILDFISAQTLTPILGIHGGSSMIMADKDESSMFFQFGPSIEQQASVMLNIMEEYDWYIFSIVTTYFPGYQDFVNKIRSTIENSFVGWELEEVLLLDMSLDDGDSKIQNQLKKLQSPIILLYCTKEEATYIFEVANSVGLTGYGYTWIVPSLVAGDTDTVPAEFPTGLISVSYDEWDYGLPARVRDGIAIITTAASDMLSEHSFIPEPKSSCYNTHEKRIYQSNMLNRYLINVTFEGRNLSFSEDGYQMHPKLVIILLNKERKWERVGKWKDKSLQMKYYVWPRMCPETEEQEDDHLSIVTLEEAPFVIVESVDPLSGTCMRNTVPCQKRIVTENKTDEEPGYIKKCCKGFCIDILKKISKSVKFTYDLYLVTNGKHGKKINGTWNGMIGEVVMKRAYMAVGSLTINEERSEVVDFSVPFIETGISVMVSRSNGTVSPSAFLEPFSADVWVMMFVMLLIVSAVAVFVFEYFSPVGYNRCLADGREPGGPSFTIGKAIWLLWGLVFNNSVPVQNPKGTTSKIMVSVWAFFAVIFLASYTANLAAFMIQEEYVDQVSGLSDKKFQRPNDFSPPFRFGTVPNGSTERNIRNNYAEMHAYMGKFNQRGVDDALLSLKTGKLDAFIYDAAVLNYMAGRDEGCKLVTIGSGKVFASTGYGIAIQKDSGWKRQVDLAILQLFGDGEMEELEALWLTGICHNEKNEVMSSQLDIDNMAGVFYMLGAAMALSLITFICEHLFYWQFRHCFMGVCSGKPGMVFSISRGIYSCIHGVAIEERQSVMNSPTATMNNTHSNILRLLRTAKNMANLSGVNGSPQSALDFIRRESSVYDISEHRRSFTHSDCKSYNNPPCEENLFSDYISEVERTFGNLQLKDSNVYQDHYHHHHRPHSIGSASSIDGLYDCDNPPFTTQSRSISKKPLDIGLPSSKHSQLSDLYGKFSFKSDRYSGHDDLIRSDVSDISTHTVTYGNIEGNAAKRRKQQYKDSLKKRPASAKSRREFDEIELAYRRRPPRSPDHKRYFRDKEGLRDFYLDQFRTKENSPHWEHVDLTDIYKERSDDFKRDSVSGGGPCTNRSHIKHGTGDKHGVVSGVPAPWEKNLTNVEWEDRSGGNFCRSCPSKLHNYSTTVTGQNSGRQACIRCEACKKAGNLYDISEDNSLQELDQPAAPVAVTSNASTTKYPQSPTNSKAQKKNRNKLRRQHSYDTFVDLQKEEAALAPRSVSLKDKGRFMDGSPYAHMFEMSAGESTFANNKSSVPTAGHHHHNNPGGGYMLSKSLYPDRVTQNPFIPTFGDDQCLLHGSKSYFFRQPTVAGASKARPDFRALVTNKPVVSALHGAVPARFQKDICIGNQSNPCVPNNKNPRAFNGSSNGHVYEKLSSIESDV

molecule	assayedTarget	IC50 (nM)
Fc1cnc(C(F)(F)CN2CCC(Nc3ncnc4[nH]ncc34)CC2)c(F)c1 [C-15]	human NR1/NR2B (Homo sapiens (Human), UniProt Q13224)	93
Cc1cnc(C(F)(F)CN2CCC(Nc3ncnc4[nH]ncc34)CC2)c(F)c1 [C-17]	human NR1/NR2B (Homo sapiens (Human), UniProt Q13224)	48
FC(F)c1ccc(C(F)(F)CN2CCC(Nc3ncnc4[nH]ncc34)CC2)nc1 [C-6]	human NR1/NR2B (Homo sapiens (Human), UniProt Q13224)	34
FCc1ccc(C(F)(F)CN2CCC(Nc3ncnc4[nH]ncc34)CC2)nc1 [C-7]	human NR1/NR2B (Homo sapiens (Human), UniProt Q13224)	43
FC(F)(F)c1ccc(C(F)(F)CN2CCC(Nc3ncnc4[nH]ncc34)CC2)cn1 [C-127]	human NR1/NR2B (Homo sapiens (Human), UniProt Q13224)	38

###

target: human NR1/NR2B (Homo sapiens (Human)); test: NR2B antagonist activity, Fluo-4 calcium influx assay in HEK293 cells; settings: HEK293 cells stably expressing NR2B; glutamate 100 μM, glycine 50 μM

molecule	unitTag	IC50
FC(F)Oc1ccc(C(F)(F)CN2CCC(Nc3ncnc4[nH]ncc34)CC2)nc1 [C-12]	nM	23
FC(F)(CN1CCC(Nc2ncnc3[nH]ncc23)CC1)c1ccc(Cl)cn1 [C-3]	nM	26
Fc1cc(Cl)cnc1C(F)(F)CN1CCC(Nc2ncnc3[nH]ncc23)CC1 [C-16]	nM	30
Cc1ccc(C(F)(F)CN2CCC(Nc3ncnc4[nH]ncc34)CC2)nc1 [C-4]	nM	52
Fc1cc(C(F)(F)F)cnc1C(F)(F)CN1CCC(Nc2ncnc3[nH]ncc23)CC1 [C-18]	nM	59
FC(F)(CN1CCC(Nc2ncnc3[nH]ncc23)CC1)c1ncc(Cl)cc1Cl [C-24]	nM	52
FC(F)(CN1CCC(Nc2ncnc3[nH]ncc23)CC1)c1ccccn1 [C-1]	nM	178
